Assay system Cytochrome P450 3A4 (Homo sapiens); read-out recorded as AC50.

Inquiry: Query AC50 on Cytochrome P450 3A4 (Homo sapiens) for COc1ccc(C(=O)NC(=S)NC(C)(C)C)cc1Br
Sequence (P08684 whole entry): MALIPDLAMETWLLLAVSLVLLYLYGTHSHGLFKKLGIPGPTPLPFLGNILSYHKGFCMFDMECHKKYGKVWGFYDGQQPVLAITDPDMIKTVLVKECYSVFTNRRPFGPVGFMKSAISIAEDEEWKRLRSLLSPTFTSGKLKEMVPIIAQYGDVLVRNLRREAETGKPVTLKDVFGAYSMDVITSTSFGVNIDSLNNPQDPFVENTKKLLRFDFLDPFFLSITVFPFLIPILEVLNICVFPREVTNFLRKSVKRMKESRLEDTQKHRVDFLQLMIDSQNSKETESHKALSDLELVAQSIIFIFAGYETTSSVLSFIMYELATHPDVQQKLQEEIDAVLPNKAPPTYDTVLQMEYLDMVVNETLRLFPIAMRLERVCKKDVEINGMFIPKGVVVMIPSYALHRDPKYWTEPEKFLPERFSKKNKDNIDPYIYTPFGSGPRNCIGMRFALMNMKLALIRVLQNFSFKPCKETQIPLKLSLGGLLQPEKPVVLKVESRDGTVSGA
Reply text: 14.1 µM (inconclusive)

Inquiry: Tell me reported AC50 for Cc1cccc(NC(=O)CCSc2nc(C)cc(C)n2)c1 , tested with Cytochrome P450 3A4 (Homo sapiens).
Reply text: 12.6 µM (inconclusive)

Inquiry: // map CCNc1ncc2nc(-c3cccc(C#N)c3)c(=O)n(C)c2n1 to recorded AC50 (system: Cytochrome P450 3A4 (Homo sapiens))
Reply text: 31.6 µM (inconclusive)

Inquiry: Notebook entry, Cytochrome P450 3A4 (Homo sapiens) assay: AC50 of CCN1CCN(C(=S)c2ccc(Br)cc2)CC1 = ?
Reply text: 17.8 µM (inconclusive)

Inquiry: Write down the reported AC50 of O=c1c2ccccc2sc2c(CO)ccc(NCCN3CCCCC3)c12 , test system: Cytochrome P450 3A4 (Homo sapiens).
Reply text: 6.31 µM (inconclusive)

Inquiry: Could you share what AC50 was measured for O=C(Oc1ccccc1)N1CCC2(CCCN(c3ccccc3)C2)CC1 , tested on Cytochrome P450 3A4 (Homo sapiens)?
Reply text: 31.6 µM (inconclusive)

Inquiry: Form entry - test system: Cytochrome P450 3A4 (Homo sapiens); read-out: AC50; compound: COc1cccc(Nc2ncc3nc(-c4cn(C)c5ccccc45)c(=O)n(CCC#N)c3n2)c1
Reply text: 1.58 µM (inconclusive)

Inquiry: API: value(readout= AC50, system= Cytochrome P450 3A4 (Homo sapiens), query= C[C@@]12CCC(=O)C=C1CC[C@H]1[C@@H]2[C@@H](O)C[C@]2(C)[C@@H]1CC[C@@]2(O)C(=O)COC(=O)C1CCCC1 );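 note: CYP3A4 tested as one member of a cytochrome P450 panel screen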
Reply text: 5.01 µM (inconclusive)

---

UniProtKB P11712 measurements of AC50, listed per entry.
Sequence (P11712 whole entry): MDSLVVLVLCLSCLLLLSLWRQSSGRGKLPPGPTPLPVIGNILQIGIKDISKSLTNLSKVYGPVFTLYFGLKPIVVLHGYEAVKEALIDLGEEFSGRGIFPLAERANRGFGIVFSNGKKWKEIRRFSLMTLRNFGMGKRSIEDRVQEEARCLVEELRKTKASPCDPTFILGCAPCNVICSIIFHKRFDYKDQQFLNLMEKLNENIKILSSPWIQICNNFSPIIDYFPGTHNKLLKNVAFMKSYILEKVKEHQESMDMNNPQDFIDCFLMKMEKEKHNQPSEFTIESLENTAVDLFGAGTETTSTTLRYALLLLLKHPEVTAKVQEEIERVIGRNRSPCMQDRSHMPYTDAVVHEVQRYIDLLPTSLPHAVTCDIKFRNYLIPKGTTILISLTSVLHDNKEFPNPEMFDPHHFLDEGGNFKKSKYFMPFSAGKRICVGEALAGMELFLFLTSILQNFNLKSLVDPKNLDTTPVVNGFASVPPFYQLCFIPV

Inquiry: Given O=C(Nc1cccc2ccccc12)/C(=C/c1ccc([N+](=O)[O-])cc1)NC(=O)c1ccccc1 , state its recorded AC50.
Reply text: 5.01 µM (inconclusive)

Inquiry: Given the compound Cc1cccc(CNc2nc(-c3ccc4c(c3)OCO4)nc3ccccc23)c1 , what is its reported AC50?
Reply text: 1 µM (inconclusive)

Inquiry: Name the recorded AC50 for COc1ccc(CC(=O)N2CCN(c3ccc(C4=NNC(=O)CC4C)cc3)CC2)cc1 (stereo unspecified) .
Reply text: 8.91 µM (inconclusive)

Inquiry: AC50 for CCc1c(C)c(C#N)c2nc3ccccc3n2c1Nc1c(C)n(C)n(-c2ccccc2)c1=O ?
Reply text: 5.01 µM (inconclusive)

Inquiry: Give the measured AC50 of O=C(Oc1ccccc1)N1CCC2(CC1)CCN(c1ccccn1)CC2 .
Reply text: 31.6 µM (inconclusive)

Inquiry: What measured AC50 goes with c1ccc(CCNc2nnnn2-c2ccccc2)cc1 ?
Reply text: 11.2 µM (inconclusive)

Inquiry: // AC50 lookup, key: COC(=O)C/C=C\[C@@H](C)[C@@H](/C=N\OC[C@@H](C)[C@H](OCc1ccccc1)C(C)C)OC
Reply text: 3.16 µM (inconclusive)

Inquiry: Field request: AC50 | item: CCOC(=O)c1c(C)nc2c(c1-c1ccccc1)C(=O)CC(C)(C)C2
Reply text: 15.8 µM (inconclusive)

Inquiry: Entry Cc1ccc(C(=O)Nc2ccc(C(=O)/C=C/c3cccs3)cc2)cc1 : reported AC50 = ?
Reply text: 11.2 µM (inconclusive)

Inquiry: Which AC50 reading was recorded for the compound O=C(CSc1nc2ccccc2o1)N1c2ccccc2Sc2ccc(Cl)cc21 ?
Reply text: 3.16 µM (inconclusive)

Inquiry: So what's the measured AC50 for this one? N#Cc1ccccc1-c1ccc2ncnc(NCc3cccs3)c2c1
Reply text: 1 µM (inconclusive)

Inquiry: Can you share its AC50? I mean this compound: CC(=O)OC1N=C(c2ccccc2)c2cc(Br)ccc2N(C)C1=O (stereo unspecified)
Reply text: 17.8 µM (inconclusive)

Inquiry: Tell me the measured AC50 of Cc1cc(N2CCOCC2)ncc1[N+](=O)[O-] , please.
Reply text: 14.1 µM (inconclusive)

Inquiry: Name the recorded AC50 for CCOc1cc(NC(=O)c2cccs2)c(OCC)cc1NC(=O)c1ccco1 .
Reply text: 0.0355 µM (inconclusive)

Inquiry: Requested field: AC50. Item: COc1ccc(Nc2nc(N3CCCCC3)c3ccccc3n2)cc1
Reply text: 17.8 µM (inconclusive)

Inquiry: Reported AC50, compound O=C(COC(=O)c1cccnc1Cl)c1ccccc1 : ____
Reply text: 17.8 µM (inconclusive)
